Recorded normalized area under the dose-response curve for the following compounds
Tested on: EJM (cancer type: MM)
assayInfo: normalized area under the dose-response curve (viability relative to DMSO control) (fraction); higher = less sensitive (more viable cells)
experimentalContext: exposure time not given
Counter-ions that a name gives are not always drawn.
parameter: normalized area under the dose-response curve

# compound, observedValue
records = [
    ("C[C@@H]1C[C@H]2[C@@H]3CCC4=CC(=O)C=C[C@]4(C)[C@@]3(F)[C@@H](O)C[C@]2(C)[C@@]1(O)C(=O)CO [Dexamethasone]", 0.777),
    ("N[C@@H](Cc1ccc(N(CCCl)CCCl)cc1)C(=O)O [Melphalan hydrochloride]", 0.685),
    ("COc1cc2nccc(Oc3ccc(NC(=O)C4(C(=O)Nc5ccc(F)cc5)CC4)cc3)c2cc1OC [Cabozantinib]", 0.756),
    ("CN(C)C/C=C/C(=O)Nc1cc2c(Nc3ccc(F)c(Cl)c3)ncnc2cc1O[C@H]1CCOC1 [Afatinib]", 0.66),
    ("CC1(COc2ccc3c(c2)ncn3-c2ccc3cccc(N4CCC(N)CC4)c3n2)COC1 [Crenolanib]", 0.436),
    ("O=C(/C=C\\n1cnc(-c2cc(C(F)(F)F)cc(C(F)(F)F)c2)n1)NNc1cnccn1 [Selinexor]", 0.389),
    ("Nc1nc(F)nc2c1ncn2[C@@H]1O[C@H](COP(=O)(O)O)[C@@H](O)[C@@H]1O [Fludarabine phosphate]", 0.882),
    ("C[C@@H]1CCN(C(=O)CC#N)C[C@@H]1N(C)c1ncnc2[nH]ccc12 [Tofacitinib]", 0.941),
    ("Cc1cc(Nc2ncc(Cl)c(Nc3ccccc3S(=O)(=O)C(C)C)n2)c(OC(C)C)cc1C1CCNCC1 [Ceritinib]", 0.502),
]
